Target: muscarinic M1 receptor (Rattus norvegicus, UniProt P08482)
Construct: Membranes from frozen rat brains excluding cerebellum were thawed; from tissue; host or cells: rat brain (excluding cerebellum) membranes
Sequence (P08482 1-460): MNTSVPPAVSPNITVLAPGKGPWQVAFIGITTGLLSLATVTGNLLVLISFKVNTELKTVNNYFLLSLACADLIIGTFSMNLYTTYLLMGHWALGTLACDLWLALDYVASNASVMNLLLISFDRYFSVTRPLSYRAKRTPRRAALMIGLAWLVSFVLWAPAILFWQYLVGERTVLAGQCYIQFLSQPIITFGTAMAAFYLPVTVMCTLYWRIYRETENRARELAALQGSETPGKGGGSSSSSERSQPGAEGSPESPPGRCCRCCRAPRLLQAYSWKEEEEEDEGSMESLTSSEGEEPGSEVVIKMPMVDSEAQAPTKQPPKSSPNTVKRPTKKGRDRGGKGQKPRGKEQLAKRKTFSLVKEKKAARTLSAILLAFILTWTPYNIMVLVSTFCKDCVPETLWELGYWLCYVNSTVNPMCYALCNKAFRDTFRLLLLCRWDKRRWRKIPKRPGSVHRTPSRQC
Assay: [3H]Pirenzepine Binding Assay, rat brain membranes
Outcome measure: Ki (nM)
Report the figure in nM without appending any unit label.

Examples with their reported Ki follow.
CCOC(=O)[C@@H]1[C@@H](OC(c2ccc(Cl)cc2)c2ccc(Cl)cc2)C[C@H]2CC[C@@H]1N2C    3060
COC(=O)[C@@H]1[C@@H](OC(c2ccc(Cl)cc2)c2ccc(Cl)cc2)C[C@H]2CC[C@@H]1N2C    382

So what does the record say about Ki for "CN1[C@@H]2CC[C@H]1[C@H](COC(=O)CCCc1ccc([N+](=O)[O-])cc1)[C@@H](OC(c1ccc(F)cc1)c1ccc(F)cc1)C2" ? 708
